Test system: Plasmodium berghei
Assay Procedure: Screen against P. berghei liver stage (PbLuc), transformed with Luciferase, at 10uM
Assay type: functional, HepG2
Settings: tested at 10 uM
In all, about 69,000 compounds went through this assay and about 8,600 (12%) showed an effect of 50% or more. The entries come from a sample that favours strong results as a whole.
For each record, check the reported INHIBITION: if it is below 10% write fulfilled, else write not fulfilled.

>>> assigned_label("Cc1occc1C(=O)N1CCO[C@H]2[C@@H](Oc3ccccn3)CC[C@@H]21")
"not fulfilled"
>>> assigned_label("COc1ccc2c(c1)NC(C1CCN(C(=O)C(C)C)CC1)NS2(=O)=O (stereo not given)")
"fulfilled"
>>> assigned_label("O=C(CN1CCCC1)N1CCCC(c2cc(=O)n3c(n2)CCCCC3)C1 (stereo not given)")
"not fulfilled"
>>> assigned_label("O=C(c1cscn1)N1CCO[C@H]2[C@@H](Oc3ccccn3)CC[C@@H]21")
"not fulfilled"
>>> assigned_label("Cc1cc(C(=O)N2CCO[C@H]3[C@H](Oc4ccccn4)CC[C@@H]32)c(C)[nH]1")
"not fulfilled"
